Target or system: T1, rat parathyroid hormone receptor 1, wild-type (rPTHR-1) (rat, UniProt P25961 27-591)
T1 construct: whole, on cells; also called rat PTHR-1; rPTHR-1-WT
T1 sequence (looked up): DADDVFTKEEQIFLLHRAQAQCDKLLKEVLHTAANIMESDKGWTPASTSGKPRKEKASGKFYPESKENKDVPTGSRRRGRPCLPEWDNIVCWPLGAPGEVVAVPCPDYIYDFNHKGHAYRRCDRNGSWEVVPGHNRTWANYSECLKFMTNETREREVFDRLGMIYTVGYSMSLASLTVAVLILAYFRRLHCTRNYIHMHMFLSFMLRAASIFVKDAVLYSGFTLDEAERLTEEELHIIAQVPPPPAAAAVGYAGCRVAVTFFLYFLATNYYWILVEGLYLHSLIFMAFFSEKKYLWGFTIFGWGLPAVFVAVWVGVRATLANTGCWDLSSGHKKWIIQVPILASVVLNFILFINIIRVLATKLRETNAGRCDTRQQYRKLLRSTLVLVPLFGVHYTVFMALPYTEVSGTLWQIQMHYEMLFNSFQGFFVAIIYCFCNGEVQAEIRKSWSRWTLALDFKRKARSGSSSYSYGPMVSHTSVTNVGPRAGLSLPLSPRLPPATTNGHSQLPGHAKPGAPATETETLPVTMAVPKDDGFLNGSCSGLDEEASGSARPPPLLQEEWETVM
Assay protocol: RG state; 125I-M-PTH(1-15) displacement; COS-7 membranes, rPTHR-1 + Gαs mutant
Non-standard residues stand in square brackets, D forms with d. No end group written: not given here. β3hW = N[C@H](CC(=O)O)Cc1c[nH]c2ccccc12; β3hE = N[C@@H](CCC(=O)O)CC(=O)O; β3hF = N[C@H](CC(=O)O)Cc1ccccc1; β3hK = NCCCC[C@H](N)CC(=O)O; β3hM = CSCC[C@H](N)CC(=O)O; β3hD = NC(CC(=O)O)CC(=O)O
Measure: pIC50
Friendly reminder that pIC50 comes from taking -log10 of the concentration in mol/L.

Example binders with recorded pIC50:
>>> measured_value("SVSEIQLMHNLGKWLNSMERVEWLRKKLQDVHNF-NH2 (not fully specified (residue 14); printed as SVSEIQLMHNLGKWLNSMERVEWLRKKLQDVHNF-NH2; also: seven β3 residues, positions not given here in text, also called α/β-peptide D7) [D7]")
8.70
>>> measured_value("SVSEIQLMHNLGK[β3hW]LNS[β3hM]ERV[β3hE]WLR[β3hK]KLQ[β3hD]VHN[β3hF]-NH2 (also called α/β-peptide D6) [D6]")
9.09
>>> measured_value("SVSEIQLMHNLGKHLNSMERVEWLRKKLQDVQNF-NH2 (not fully specified (residues 20, 24, 28, 32); printed as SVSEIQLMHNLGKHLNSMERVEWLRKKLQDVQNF-NH2; also: five β3 residues, positions not given here in text, also called α/β-peptide B5) [B5]")
8.38

Alright, here's another binder for you.
input: Could you share which pIC50 value was measured for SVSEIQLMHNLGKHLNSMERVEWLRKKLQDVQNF-NH2 (not fully specified (residue 32); printed as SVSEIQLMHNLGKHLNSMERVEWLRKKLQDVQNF-NH2; also: three β3 residues, positions not given here in text, also called α/β-peptide B3) [B3] ?
output: 8.07

Cited source for all entries: patent US20140378382A1
